Molecular target: Presequence protease, mitochondrial (Homo sapiens)
Sequence (Q5JRX3 whole entry): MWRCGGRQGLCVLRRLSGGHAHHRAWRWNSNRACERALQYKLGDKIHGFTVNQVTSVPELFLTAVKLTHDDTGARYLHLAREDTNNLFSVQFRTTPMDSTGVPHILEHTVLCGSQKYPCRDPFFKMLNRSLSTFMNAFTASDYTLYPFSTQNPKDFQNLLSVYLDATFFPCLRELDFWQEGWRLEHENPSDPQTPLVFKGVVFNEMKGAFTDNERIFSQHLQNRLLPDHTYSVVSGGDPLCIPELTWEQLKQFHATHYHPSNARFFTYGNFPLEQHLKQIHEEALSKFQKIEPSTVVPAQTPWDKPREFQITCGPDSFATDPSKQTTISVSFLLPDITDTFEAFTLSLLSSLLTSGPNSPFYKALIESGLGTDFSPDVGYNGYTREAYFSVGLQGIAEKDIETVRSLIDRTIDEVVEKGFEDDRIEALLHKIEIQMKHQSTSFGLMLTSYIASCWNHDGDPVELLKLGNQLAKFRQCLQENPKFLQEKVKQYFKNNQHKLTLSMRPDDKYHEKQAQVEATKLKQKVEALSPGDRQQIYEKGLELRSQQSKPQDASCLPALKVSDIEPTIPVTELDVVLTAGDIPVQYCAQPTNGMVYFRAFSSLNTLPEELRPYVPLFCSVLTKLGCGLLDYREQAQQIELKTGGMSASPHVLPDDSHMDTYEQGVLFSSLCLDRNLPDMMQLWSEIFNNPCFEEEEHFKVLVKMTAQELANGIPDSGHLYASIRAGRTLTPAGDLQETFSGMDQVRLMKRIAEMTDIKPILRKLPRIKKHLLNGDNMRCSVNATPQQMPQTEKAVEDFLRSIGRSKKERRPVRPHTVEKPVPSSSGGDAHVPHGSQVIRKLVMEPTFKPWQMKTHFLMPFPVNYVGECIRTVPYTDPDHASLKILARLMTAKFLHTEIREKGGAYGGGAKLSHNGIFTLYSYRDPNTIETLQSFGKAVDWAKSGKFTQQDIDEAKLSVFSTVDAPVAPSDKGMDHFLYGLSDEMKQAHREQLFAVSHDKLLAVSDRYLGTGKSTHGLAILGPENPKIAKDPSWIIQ
Experiment: Agonist activity at human PreP assessed as degradation of ATP synthase pF1beta subunit (2 to 56) after 2.5 hrs by Immunoblotting assay
Details: in the assay text read “(2 to 54)” for “(2 to 56)”
measurement_name: pEC50
Scale explanation: pEC50 corresponds to minus log10 of a concentration expressed in moles per litre.

For this compound ( O=[N+]([O-])c1ccc2c(c1)N(Cc1cc(Br)ccc1O)C(c1cc(Br)ccc1O)N2Cc1cc(Br)ccc1O (stereo unspecified) ), measured pEC50 is 6.22
